- SYSTEM_UNDER_TEST: T1, soluble KDR extracellular domain (ECD) (Calbiochem) (human, UniProt P35968 20-764)
- T1 construct: extracellular domain; Bought protein; also called KDR-ECD; VEGF Receptor 2 D1-7, Cat. #676490
- EXPERIMENT: Limited Antigen ELISA, KDR coat 25 ng/mL, supernatant 1:25
This section presents binders with their documented ELISA reading values.
Hey, just send me the number, nothing else.

Documented ELISA reading of 33D5 (antibody, V domains shown, Fully human mAb from XenoMouse hybridoma, tested as hybridoma supernatant) VH: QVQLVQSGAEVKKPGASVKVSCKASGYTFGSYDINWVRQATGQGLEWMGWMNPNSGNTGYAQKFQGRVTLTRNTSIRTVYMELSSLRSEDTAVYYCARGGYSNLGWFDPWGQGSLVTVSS VL: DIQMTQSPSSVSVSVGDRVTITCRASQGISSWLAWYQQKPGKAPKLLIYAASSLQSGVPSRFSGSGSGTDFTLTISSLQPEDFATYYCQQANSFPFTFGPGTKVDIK : 2.2

ELISA reading in this record for 32G7 (antibody, V domains shown, Fully human mAb from XenoMouse hybridoma, tested as hybridoma supernatant) VH: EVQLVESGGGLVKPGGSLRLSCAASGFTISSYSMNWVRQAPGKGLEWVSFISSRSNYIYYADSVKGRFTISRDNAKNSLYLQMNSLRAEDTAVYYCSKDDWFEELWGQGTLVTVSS VL: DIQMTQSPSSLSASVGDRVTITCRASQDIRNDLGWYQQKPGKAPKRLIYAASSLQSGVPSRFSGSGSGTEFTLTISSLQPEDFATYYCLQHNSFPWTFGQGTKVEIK : 0.15

ELISA reading for 33B1 (antibody, V domains shown, Fully human mAb from XenoMouse hybridoma, tested as hybridoma supernatant) VH: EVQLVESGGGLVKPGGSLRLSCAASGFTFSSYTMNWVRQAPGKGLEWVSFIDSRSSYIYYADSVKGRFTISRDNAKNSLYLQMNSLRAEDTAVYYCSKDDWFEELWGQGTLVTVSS VL: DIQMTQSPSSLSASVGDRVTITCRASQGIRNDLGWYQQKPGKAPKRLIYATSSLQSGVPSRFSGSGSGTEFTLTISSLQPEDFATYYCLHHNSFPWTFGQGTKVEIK is 0.2
